// data source = patent US20140356358A1

target: T1, human neonatal Fc receptor (hFcRn) (human, UniProt P55899 24-290; P61769 21-119); test: phage ELISA pH 6;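 further: higher score means stronger binding and above about 3 to 5 exceeds background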
T1 construct: Biotinylated in the ELISA, Octet and yeast assays; also called human FcRn; huFcRn
T1 sequence (P55899 24-290 limits assumed, chain 1 of 2): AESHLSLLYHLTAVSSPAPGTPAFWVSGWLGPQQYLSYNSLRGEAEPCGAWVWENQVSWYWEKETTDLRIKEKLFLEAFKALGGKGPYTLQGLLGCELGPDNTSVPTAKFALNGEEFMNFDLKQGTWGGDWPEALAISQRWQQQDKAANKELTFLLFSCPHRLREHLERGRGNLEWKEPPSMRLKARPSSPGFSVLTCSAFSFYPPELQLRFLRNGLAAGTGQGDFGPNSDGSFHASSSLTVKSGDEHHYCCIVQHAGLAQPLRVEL
T1 sequence (P61769 21-119 limits assumed, chain 2 of 2): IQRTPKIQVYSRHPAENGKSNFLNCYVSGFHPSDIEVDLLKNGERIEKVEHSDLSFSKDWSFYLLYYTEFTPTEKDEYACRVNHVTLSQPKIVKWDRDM
Reported ELISA score values for a set of binders

BINDER	ELISA score
L5 isolate with insertion SEQ ID NO: 475 (other) EPKSCDKTHTCPPCPAPELLGGPSVFLFPPKPKDTLMISRTPEVTCVVVDVSHEDPEVKFNWYVDGVEVHNAKTKPREEQYNSTYRVVSVLTVLHQDWLNGKEYKCKVSNKALPAPIEKTISKAKGQPREPQVYTLPPSRDELTKNQVSLTCLVKGFYPSDIAVEWESNGGCLGLRQECGGGQPENNYKTTPPVLDSDGSFFLYSKLTVDKSRWQQGNVFSCSVMHEALHNHYTQKSLSLSPGK	41.1
L5 isolate with insertion SEQ ID NO: 432 (other) EPKSCDKTHTCPPCPAPELLGGPSVFLFPPKPKDTLMISRTPEVTCVVVDVSHEDPEVKFNWYVDGVEVHNAKTKPREEQYNSTYRVVSVLTVLHQDWLNGKEYKCKVSNKALPAPIEKTISKAKGQPREPQVYTLPPSRDELTKNQVSLTCLVKGFYPSDIAVEWESNGGCDRPVWFCGGGQPENNYKTTPPVLDSDGSFFLYSKLTVDKSRWQQGNVFSCSVMHEALHNHYTQKSLSLSPGK	57.7
L5 isolate with insertion SEQ ID NO: 425 (other) EPKSCDKTHTCPPCPAPELLGGPSVFLFPPKPKDTLMISRTPEVTCVVVDVSHEDPEVKFNWYVDGVEVHNAKTKPREEQYNSTYRVVSVLTVLHQDWLNGKEYKCKVSNKALPAPIEKTISKAKGQPREPQVYTLPPSRDELTKNQVSLTCLVKGFYPSDIAVEWESNGGCIGPFWWCGGGQPENNYKTTPPVLDSDGSFFLYSKLTVDKSRWQQGNVFSCSVMHEALHNHYTQKSLSLSPGK	59.2
